TEST_TARGET: recombinant human G9a protein (Homo sapiens)
Construct: purchased BPS Bioscience Inc. #51001
ASSAY_PROCEDURE: G9a inhibitory activity test (ALPHA)
Assay type: biochemical
CONDITION: read-out: Inhibitory activity (G9a IC50)
EXPERIMENTAL_ENDPOINT: IC50

INSERT INTO measurements (compound, test_target, reading) VALUES
  ('COc1ccc(NC(=O)C(CCC2CC2)NC(=O)c2ccc(NC3CCN(C)CC3)cc2)cn1 (centres unmarked)', 'recombinant human G9a protein (Homo sapiens)', '≥ 200 nM'),
  ('CCCC[C@H](NC(=O)c1[nH]c2c(c1CC)C(=O)CC(C)(C)C2)C(=O)N[C@@H](C)c1ccccc1', 'recombinant human G9a protein (Homo sapiens)', '50 to 200 nM'),
  ('Cc1c(C(=O)NC(CCC2CC2)C(=O)NCc2cccc(CN(C)C)c2)[nH]c2c1C(=O)CC(C)(C)C2 (centres unmarked)', 'recombinant human G9a protein (Homo sapiens)', '< 50 nM'),
  ('COc1ccc(NC(=O)C(CCC2CC2)NC(=O)c2sc(-c3cccnc3)nc2C(F)(F)F)cn1 (centres unmarked)', 'recombinant human G9a protein (Homo sapiens)', '≥ 200 nM'),
  ('CCCCC(NC(=O)c1[nH]c2ccc(OCC)cc2c1C)C(=O)Nc1ccc(OC2CCN(C)CC2)nc1 (centres unmarked)', 'recombinant human G9a protein (Homo sapiens)', '≥ 200 nM'),
  ('CCCC[C@H](NC(=O)c1[nH]c2c(c1CCC)C(=O)CC(C)(C)C2)C(=O)N[C@@H](C)c1ccccc1', 'recombinant human G9a protein (Homo sapiens)', '50 to 200 nM'),
  ('CCCC[C@H](NC(=O)c1[nH]c2c(c1C)C(=O)CC(C)(C)C2)C(=O)NCc1ccc(N2CCN(CC)CC2)cc1', 'recombinant human G9a protein (Homo sapiens)', '≥ 200 nM'),
  ('CCCC[C@H](NC(=O)c1[nH]c2c(c1C)C(=O)CC(C)(C)C2)C(=O)N1CCc2c(OCCN3CCCC3)cccc21', 'recombinant human G9a protein (Homo sapiens)', '≥ 200 nM'),
  ('COc1ccc(NC(=O)C(CCC2CC2)NC(=O)c2ccc(Nc3ccnc(C)c3)cc2)cn1 (centres unmarked)', 'recombinant human G9a protein (Homo sapiens)', '< 50 nM'),
  ('COc1ccc(NC(=O)C(CCC2CC2)NC(=O)c2ccc(Nc3ccncc3)nc2)cn1 (centres unmarked)', 'recombinant human G9a protein (Homo sapiens)', '≥ 200 nM'),
  ('CCCC[C@H](NC(=O)c1[nH]c2c(c1C)C(=O)CC(C)(C)C2)C(=O)N[C@@H](CO)c1ccccc1', 'recombinant human G9a protein (Homo sapiens)', '50 to 200 nM'),
  ('Cc1c(C(=O)NC(CCC2CC2)C(=O)N2CCc3cc(CN4CCCCC4)ccc32)[nH]c2c1C(=O)CC(C)(C)C2 (centres unmarked)', 'recombinant human G9a protein (Homo sapiens)', '≥ 200 nM'),
  ('Cc1c(C(=O)NC(CCC2CC2)C(=O)N2CCc3c(OCCN4CCCC4)cccc32)[nH]c2c1C(=O)CC(C)(C)C2 (centres unmarked)', 'recombinant human G9a protein (Homo sapiens)', '50 to 200 nM'),
  ('Cc1c(C(=O)N[C@H](CCC2CC2)C(=O)N(C)[C@@H](C)c2ccccc2)[nH]c2c1C(=O)CC(C)(C)C2', 'recombinant human G9a protein (Homo sapiens)', '≥ 200 nM'),
  ('CCCC[C@H](NC(=O)c1[nH]c2c(c1C)C(=O)CC(C)(C)C2)C(=O)Nc1ccc(OC2CCN(C)CC2)nc1', 'recombinant human G9a protein (Homo sapiens)', '< 50 nM'),
  ('Cc1c(C(=O)N[C@@H](CCC2CC2)C(=O)Nc2ccc(C#N)cc2)[nH]c2c1C(=O)CC(C)(C)C2', 'recombinant human G9a protein (Homo sapiens)', '< 50 nM'),
  ('CCCCC(NC(=O)c1[nH]c2c(c1C)C(=O)CC(C)(C)C2)C(=O)Nc1ccc2c(c1)CCNC2 (centres unmarked)', 'recombinant human G9a protein (Homo sapiens)', '50 to 200 nM'),
  ('CCCCC(NC(=O)c1[nH]c2c(c1C)C(=O)CC(C)(C)C2)C(=O)Nc1cccc2c1CCN(C(=O)OC(C)(C)C)C2 (centres unmarked)', 'recombinant human G9a protein (Homo sapiens)', '≥ 200 nM'),
  ('CCCCC(NC(=O)c1[nH]c2c(c1C)C(=O)CC(C)(C)C2)C(=O)Nc1cccnc1CC (centres unmarked)', 'recombinant human G9a protein (Homo sapiens)', '≥ 200 nM'),
  ('CCCCC(NC(=O)c1[nH]c2c(c1C)C(=O)CC(C)(C)C2)C(=O)NCc1ccc(C(=O)OC)cc1 (centres unmarked)', 'recombinant human G9a protein (Homo sapiens)', '≥ 200 nM'),
  ('Cc1cc(Nc2ccncc2)ccc1C(=O)NC(CCC1CC1)C(=O)Nc1ccc(C#N)nc1 (centres unmarked)', 'recombinant human G9a protein (Homo sapiens)', '< 50 nM'),
  ('CCCCC(NC(=O)c1sc(-c2ccccc2)nc1C(F)(F)F)C(=O)Nc1ccc(OC2CCN(C)CC2)nc1 (centres unmarked)', 'recombinant human G9a protein (Homo sapiens)', '50 to 200 nM'),
  ('Cc1c(C(=O)NC(CCC2CC2)C(=O)Nc2ccccn2)[nH]c2c1C(=O)CC(C)(C)C2 (centres unmarked)', 'recombinant human G9a protein (Homo sapiens)', '≥ 200 nM'),
  ('COc1ccc(NC(=O)C(CCC2CC2)NC(=O)c2nc(-c3ccccc3)sc2C)cn1 (centres unmarked)', 'recombinant human G9a protein (Homo sapiens)', '≥ 200 nM'),
  ('CCCCC(NC(=O)c1[nH]c2c(c1C)C(=O)CC(C)(C)C2)C(=O)NCc1ccc(C(=O)N(C)C)cc1 (centres unmarked)', 'recombinant human G9a protein (Homo sapiens)', '≥ 200 nM'),
  ('CCCC[C@H](NC(=O)c1[nH]c2c(c1C(C)C)C(=O)CC(C)(C)C2)C(=O)N[C@@H](C)c1ccccc1', 'recombinant human G9a protein (Homo sapiens)', '50 to 200 nM'),
  ('COc1ccc(NC(=O)C(CCC2CC2)NC(=O)c2ccc(-n3ccc4cnccc43)cc2)cn1 (centres unmarked)', 'recombinant human G9a protein (Homo sapiens)', '50 to 200 nM'),
  ('COc1ccc(NC(=O)C(CCC2CC2)NC(=O)c2ccc(NCCN(C)C)cc2)cn1 (centres unmarked)', 'recombinant human G9a protein (Homo sapiens)', '≥ 200 nM'),
  ('CCCCC(NC(=O)c1[nH]c2c(c1C)C(=O)CC(C)(C)C2)C(=O)Nc1ccc(OC2CNC2)cc1 (centres unmarked)', 'recombinant human G9a protein (Homo sapiens)', '50 to 200 nM');

---

TEST_TARGET: recombinant human G9a protein (Homo sapiens, UniProt Q96KQ7)
Construct: purchased BPS Bioscience Inc. #51001
Sequence (Q96KQ7 785-1210 limits assumed): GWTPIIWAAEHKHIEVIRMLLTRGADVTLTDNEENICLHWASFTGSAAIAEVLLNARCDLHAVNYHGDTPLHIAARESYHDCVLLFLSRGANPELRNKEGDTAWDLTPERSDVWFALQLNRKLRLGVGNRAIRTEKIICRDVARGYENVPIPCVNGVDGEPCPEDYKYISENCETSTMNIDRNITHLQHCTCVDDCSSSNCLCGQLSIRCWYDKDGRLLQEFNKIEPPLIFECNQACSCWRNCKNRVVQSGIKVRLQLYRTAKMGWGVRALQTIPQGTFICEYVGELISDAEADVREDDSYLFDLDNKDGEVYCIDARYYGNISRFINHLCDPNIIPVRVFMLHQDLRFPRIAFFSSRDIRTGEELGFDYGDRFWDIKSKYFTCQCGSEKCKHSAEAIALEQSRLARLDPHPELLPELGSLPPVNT
ASSAY_PROCEDURE: G9a inhibitory activity test (ALPHA)
Assay type: biochemical
CONDITION: read-out: Inhibitory activity (G9a IC50)
EXPERIMENTAL_ENDPOINT: IC50

INSERT INTO assay_data (compound, experimental_endpoint, reading) VALUES
  ('CCCC[C@H](NC(=O)c1[nH]c2c(c1C)C(=O)CC(C)(C)C2)c1nc2ccc(OCCCN(C)C)cc2[nH]1 [Example 34-1]', 'IC50', '≥ 0.2 µM'),
  ('CC(C)c1c(C(=O)N[C@@H](CCC2CC2)C(=O)Nc2ccc(C#N)cc2)[nH]c2c1C(=O)CC(C)(C)C2 [Example 15-4]', 'IC50', '0.05 to 0.2 µM'),
  ('CCCC[C@H](NC(=O)c1[nH]c2c(c1C)C(=O)CC(C)(C)C2)C(=O)Nc1ccc(OC2CCN(C)CC2)cc1OC [Example 6-30]', 'IC50', '< 0.05 µM'),
  ('Cc1c(C(=O)NC(CCC2CC2)C(=O)N2CCc3cc(CN4CCOCC4)ccc32)[nH]c2c1C(=O)CC(C)(C)C2 (centres unmarked) [Example 1-143]', 'IC50', '≥ 0.2 µM'),
  ('CCCCC(NC(=O)c1[nH]c2c(c1C)C(=O)CC(C)(C)C2)C(=O)Nc1cc(NC(C)=O)ccc1OC (centres unmarked) [Example 1-114]', 'IC50', '≥ 0.2 µM'),
  ('CCCCC(NC(=O)CC1CCCCC1)C(=O)Nc1ccc(OC2CCN(C)CC2)nc1 (centres unmarked) [Example 11-2]', 'IC50', '≥ 0.2 µM'),
  ('Cc1c(C(=O)N[C@@H](CCC2CC2)C(=O)N(C)[C@@H](C)c2ccccc2)[nH]c2c1C(=O)CC(C)(C)C2 [Example 13-5]', 'IC50', '≥ 0.2 µM'),
  ('CCCC[C@H](NC(=O)c1[nH]c2c(c1C)C(=O)CC(C)(C)C2)C(=O)NCc1ccc(N2CCN(CC(C)C)CC2)cc1 [Example 22-1]', 'IC50', '≥ 0.2 µM'),
  ('CCCC[C@H](NC(=O)c1[nH]c2c(c1C)C(=O)CC(C)(C)C2)c1nc2ccc(OCCCN3CCOCC3)cc2[nH]1 [Example 34-3]', 'IC50', '≥ 0.2 µM'),
  ('CCN(CC)Cc1cccc2c1nc(C(CCC1CC1)NC(=O)c1[nH]c3c(c1C)C(=O)CC(C)(C)C3)n2C (centres unmarked) [Example 31-4]', 'IC50', '≥ 0.2 µM'),
  ('CCCC[C@H](NC(=O)c1[nH]c2c(c1C)C(=O)CC(C)(C)C2)c1nc2ccc(OC3CCN(C)CC3)cc2[nH]1 [Example 34-4]', 'IC50', '≥ 0.2 µM'),
  ('Cc1c(C(=O)NC(CCC2CC2)C(=O)Nc2ccc(CCN(C)C)cc2)[nH]c2c1C(=O)CC(C)(C)C2 (centres unmarked) [Example 1-139]', 'IC50', '< 0.05 µM'),
  ('CCCCC(NC(=O)c1[nH]c2c(c1C)C(=O)CC(C)(C)C2)C(=O)NCc1ccc(CNC(C)(C)C)cc1 (centres unmarked) [Example 18-4]', 'IC50', '< 0.05 µM'),
  ('CCCCC(NC(=O)c1[nH]c2c(c1C)C(=O)CC(C)(C)C2)C(=O)Nc1cnccc1CC (centres unmarked) [Example 6-22]', 'IC50', '0.05 to 0.2 µM');
